Listing of recorded residual activity by entry.
tgt: Interleukin-1 receptor-associated kinase 4 (Homo sapiens)
reported.conditions: at 10 µM
The reply should contain only the number, in %.

# count of solved cases: 3
Data point: `CC(C)(C)n1nc(Cc2cccc3ccccc23)c2c(N)ncnc21` ; residual activity = 81

Data point: `CC(C)c1nn(-c2c(Cl)cccc2Cl)c2nc(Cc3ccc(OCCO)cc3)[nH]c(=O)c12` ; residual activity = 91

Data point: `CC(C)(C)c1nc2c3ccc(F)cc3c3c(=O)[nH]ccc3c2[nH]1` ; residual activity = 53

Continuing:
Data point: `CC(C)[C@H](CO)Nc1nc(Nc2cc(N)cc(Cl)c2)c2ncn(C(C)C)c2n1` ; residual activity = 7

Data point: `c1ccc(-c2cnc(Nc3ccc(OCCN4CCCC4)cc3)s2)cc1` ; residual activity = 80
